Biological target: T1, cynomolgus monkey BCMA (cynomolgus monkey, UniProt A0A2K5UD97 1-53)
T1 construct: Soluble analyte in SPR; construct not described; also called cyBCMA; Cyno BCMA
T1 sequence (A0A2K5UD97 entry or part of it): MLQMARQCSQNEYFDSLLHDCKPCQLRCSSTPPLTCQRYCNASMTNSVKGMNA
Assay: SPR, IgG immobilised, 37 C
Property Name: Kd (nM)

>>> result_number("L3.PY/L1.AH/H3.YA (antibody, V domains shown, IgG) VH: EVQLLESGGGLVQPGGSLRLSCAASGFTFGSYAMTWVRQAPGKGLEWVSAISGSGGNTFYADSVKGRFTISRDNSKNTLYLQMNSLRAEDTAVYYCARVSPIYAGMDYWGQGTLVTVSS VL: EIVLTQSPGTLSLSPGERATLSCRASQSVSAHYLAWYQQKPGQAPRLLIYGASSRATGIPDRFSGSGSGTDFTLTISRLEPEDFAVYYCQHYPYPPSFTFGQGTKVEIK")
2.22
>>> result_number("L3.PY/L1.FF/P6E01 (antibody, V domains shown, IgG) VH: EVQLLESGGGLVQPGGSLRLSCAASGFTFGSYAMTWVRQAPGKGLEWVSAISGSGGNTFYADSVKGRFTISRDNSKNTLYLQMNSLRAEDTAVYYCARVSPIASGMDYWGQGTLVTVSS VL: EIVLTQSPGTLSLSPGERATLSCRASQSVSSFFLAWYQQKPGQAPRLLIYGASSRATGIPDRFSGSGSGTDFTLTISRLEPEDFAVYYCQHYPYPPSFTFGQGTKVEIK")
2.41
>>> result_number("L3.PY/L1.AH/H2.LT (antibody, V domains shown, IgG) VH: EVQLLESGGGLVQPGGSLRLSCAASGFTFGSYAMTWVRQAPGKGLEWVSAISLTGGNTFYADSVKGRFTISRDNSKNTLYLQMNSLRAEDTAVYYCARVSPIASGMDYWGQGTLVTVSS VL: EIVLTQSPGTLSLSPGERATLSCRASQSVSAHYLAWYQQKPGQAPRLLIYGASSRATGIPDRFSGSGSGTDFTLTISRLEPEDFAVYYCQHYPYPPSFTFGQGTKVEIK")
1.35
